Each record here notes measured cytotoxicity at 70.5 h.
# TEST PROTOCOL: Human HepG2 cell viability assay in 384 well format
# Format: toxicity, cell-based
# Set-up: dose 125 nL, time 70.5 hour; concentration not given beside the values
# EXPERIMENTAL CONTEXT: HepG2 cells, read-out: Inhibition

{"COMPOUND": "Cc1nn(C)c2nc(N3CCCCC3c3cccnc3)sc12 (configuration not stated)", "UNIT ANNOTATION": "%", "cytotoxicity at 70.5 h": -4.09}
{"COMPOUND": "COCCNc1nc(NCCc2ccccc2)nc2nccnc12", "UNIT ANNOTATION": "%", "cytotoxicity at 70.5 h": -1.44}
{"COMPOUND": "CC(=O)N1CCO[C@@H]2CN(Cc3cccc(Cl)c3)C[C@@H]2C1", "UNIT ANNOTATION": "%", "cytotoxicity at 70.5 h": -2.75}
{"COMPOUND": "C=C(C)CNCC1(O)CCCN(Cc2ccc(F)c(F)c2)C1=O (configuration not stated)", "UNIT ANNOTATION": "%", "cytotoxicity at 70.5 h": -1.61}
{"COMPOUND": "Cc1ccc(C)c(-c2csc(N)c2C#N)c1", "UNIT ANNOTATION": "%", "cytotoxicity at 70.5 h": -3.45}
{"COMPOUND": "Cc1ccc(N(C)S(=O)(=O)c2cc(C(=O)O)cs2)c(C)c1", "UNIT ANNOTATION": "%", "cytotoxicity at 70.5 h": 0.683}
{"COMPOUND": "COc1ccccc1-c1ccccc1CC1(C(=O)O)CCNCC1", "UNIT ANNOTATION": "%", "cytotoxicity at 70.5 h": 0.76}
{"COMPOUND": "Cc1nc(CN2CCN(C(=O)c3ccn(C)c(=O)c3)CC2)cs1", "UNIT ANNOTATION": "%", "cytotoxicity at 70.5 h": 7.44}
{"COMPOUND": "Cc1cc(N(C)C)nc(C2(C)CCCN2C(=O)c2cncnc2C)n1 (configuration not stated)", "UNIT ANNOTATION": "%", "cytotoxicity at 70.5 h": -10.8}
{"COMPOUND": "O=C(c1ccccc1)N1CCC2(CCCN2c2ncccn2)CC1", "UNIT ANNOTATION": "%", "cytotoxicity at 70.5 h": 3.93}
{"COMPOUND": "CCc1nnc(CN(C)Cc2cccc(C(=O)Nc3ccnn3C)c2)o1", "UNIT ANNOTATION": "%", "cytotoxicity at 70.5 h": 1.53}
{"COMPOUND": "CC(=O)NCC(=O)N1CCn2cc(CN(C)Cc3ccco3)nc2C1", "UNIT ANNOTATION": "%", "cytotoxicity at 70.5 h": 2.22}

---

# TEST PROTOCOL: Human HepG2 cell viability assay in 384 well format
# Format: toxicity, cell-based
# Design: dose 125 nL, time 70.5 hour; concentration not given beside the values
# EXPERIMENTAL CONTEXT: HepG2 cells, read-out: Inhibition
Each record here notes measured cytotoxicity at 70.5 h.
MEASURED METRIC: cytotoxicity at 70.5 h (%)

{"COMPOUND": "CCCc1nc(C(=O)N2CCN(S(=O)(=O)CC)CC2)cs1", "MEASURED METRIC": "cytotoxicity at 70.5 h", "REPORTED VALUE": 10.2}
{"COMPOUND": "CCC(C(=O)NCc1cccnc1)N(c1cccc(C)c1)S(C)(=O)=O (stereo unspecified)", "MEASURED METRIC": "cytotoxicity at 70.5 h", "REPORTED VALUE": 6.87}
{"COMPOUND": "CCc1nc(CN(C)CC(=O)NC(C)C)cs1", "MEASURED METRIC": "cytotoxicity at 70.5 h", "REPORTED VALUE": -13.3}
{"COMPOUND": "CC(Cc1ccco1)NC(=O)Nc1ccc(N(C)C)nc1 (stereo unspecified)", "MEASURED METRIC": "cytotoxicity at 70.5 h", "REPORTED VALUE": -7.91}
{"COMPOUND": "COCC(=O)N1CC[C@H]2N(C)CC[C@@]2(C(=O)Nc2ccccc2)CC1", "MEASURED METRIC": "cytotoxicity at 70.5 h", "REPORTED VALUE": -20}
{"COMPOUND": "Cc1ccc(C(=O)NCC(C)Cn2ccnc2C)c(=O)[nH]1 (stereo unspecified)", "MEASURED METRIC": "cytotoxicity at 70.5 h", "REPORTED VALUE": 0.288}

---

Each record here notes measured cytotoxicity at 70.5 h.
# TEST PROTOCOL: Human HepG2 cell viability assay in 384 well format
# Assay type: toxicity, cell-based
# Set-up: dose 125 nL, time 70.5 hour; concentration not given beside the values
# EXPERIMENTAL CONTEXT: HepG2 cells, read-out: Inhibition

{"COMPOUND": "Cc1ccc(CNC(=O)CCSCc2csc(C)n2)cn1", "cytotoxicity at 70.5 h, %": -11.2}
{"COMPOUND": "O=C(C1CN(Cc2ccoc2)CC12CCOCC2)N1CCCC1 (configuration not stated)", "cytotoxicity at 70.5 h, %": 7.01}
{"COMPOUND": "CN(C)Cc1cccc(-c2cccnc2C(=O)NCc2ccco2)c1", "cytotoxicity at 70.5 h, %": -4.14}
{"COMPOUND": "Cc1nc(N2CCOCC2)nc2c1CCN(Cc1cccnc1)CC2", "cytotoxicity at 70.5 h, %": -17.8}
{"COMPOUND": "NC(=O)CCNCc1c(Cl)cccc1N1CCCC1", "cytotoxicity at 70.5 h, %": -6.13}
{"COMPOUND": "CN(Cc1ccccn1)C(=O)c1ccc2c(c1O)OC(C)(C)C2", "cytotoxicity at 70.5 h, %": 11.6}
{"COMPOUND": "CC(NC(=O)COc1ccc(F)cc1)c1nnc2n1CCCCC2 (configuration not stated)", "cytotoxicity at 70.5 h, %": -4}
{"COMPOUND": "Cn1cc(N2CCCC(Nc3ccc4c(c3)CCC(=O)N4)C2=O)cn1 (configuration not stated)", "cytotoxicity at 70.5 h, %": 0.589}
{"COMPOUND": "O=S(=O)(c1ccccc1F)N1CCCCC1c1cc[nH]n1 (configuration not stated)", "cytotoxicity at 70.5 h, %": -5}
{"COMPOUND": "CC(=O)NCCc1nc(C(C)C)nn1-c1ccncc1C", "cytotoxicity at 70.5 h, %": -14.7}
{"COMPOUND": "CCOc1ccc(C#N)cc1NC(=O)N1CCOC(C(N)=O)C1 (configuration not stated)", "cytotoxicity at 70.5 h, %": 23}
{"COMPOUND": "CC(C)NC(=O)c1n[nH]c(-n2cnnc2)n1", "cytotoxicity at 70.5 h, %": -0.175}
{"COMPOUND": "CCCNC(=O)c1cnc2n1CCCC2", "cytotoxicity at 70.5 h, %": -9.22}
{"COMPOUND": "Clc1ccc(CNc2cnn(CCN3CCOCC3)c2)cc1Cl", "cytotoxicity at 70.5 h, %": -19.4}
{"COMPOUND": "CCC(C)C(=O)NCCCn1nc(C)cc1C (configuration not stated)", "cytotoxicity at 70.5 h, %": -13.2}
{"COMPOUND": "Cc1ccc(N2CCC3(CC2)CC(OCC(=O)N(C)C)CO3)nn1 (configuration not stated)", "cytotoxicity at 70.5 h, %": -8.76}
{"COMPOUND": "COc1ccccc1CN1CCC(c2nccc(C)n2)C1 (configuration not stated)", "cytotoxicity at 70.5 h, %": 27.1}
{"COMPOUND": "CC(C)CN1CCC(c2nc3ccc(NC(C)C)cn3n2)CC1", "cytotoxicity at 70.5 h, %": -13.1}
{"COMPOUND": "CCS(=O)(=O)N1CCC2(CCN(C(=O)c3cccs3)CC2)CC1", "cytotoxicity at 70.5 h, %": -4.52}
{"COMPOUND": "Cc1cnn(CC2CN(CCS(=O)(=O)c3ccccc3)CCO2)c1 (configuration not stated)", "cytotoxicity at 70.5 h, %": -9.7}
{"COMPOUND": "O=C(NCc1nnc2n1CCCC2)c1ccc(C2CCCO2)s1 (configuration not stated)", "cytotoxicity at 70.5 h, %": 18.3}
{"COMPOUND": "CC(C)CCN(C)C(=O)c1cnc2c(cnn2CC(C)C)c1", "cytotoxicity at 70.5 h, %": 1.58}
{"COMPOUND": "Cc1nc(-c2cn(CCN)nn2)n(-c2ccc3c(c2)CCC3)n1", "cytotoxicity at 70.5 h, %": -4.36}
{"COMPOUND": "FC1(F)CCNCC12CCN(c1ccccn1)C2 (configuration not stated)", "cytotoxicity at 70.5 h, %": 9.9}
{"COMPOUND": "Cn1cc(N2CCC(NC(=O)c3c(F)cccc3Cl)C2=O)cn1 (configuration not stated)", "cytotoxicity at 70.5 h, %": -3.25}
{"COMPOUND": "Cc1ccc2c(c1)c(CNC(=O)C1CC(=O)N(C3CCCC3)C1)nn2C (configuration not stated)", "cytotoxicity at 70.5 h, %": 16.8}
{"COMPOUND": "CC(C)c1nccc(-c2nccn2CCS(C)(=O)=O)n1", "cytotoxicity at 70.5 h, %": -16.1}
{"COMPOUND": "CC1(C(=O)N2CCOCC2)CN(CC2CCOCC2)CCO1 (configuration not stated)", "cytotoxicity at 70.5 h, %": -0.606}
{"COMPOUND": "CCN1C(=O)[C@]2(CC[C@@H]3CN(C(=O)Nc4ccc(F)cc4)C[C@@H]32)N=C1C", "cytotoxicity at 70.5 h, %": -77.4}
{"COMPOUND": "Fc1ccc(-c2nc(CN3CCCC3Cn3cncn3)co2)cc1F (configuration not stated)", "cytotoxicity at 70.5 h, %": 17.9}
{"COMPOUND": "CCCc1noc(CS(=O)(=O)CC(=O)NC(C)CCC)n1 (configuration not stated)", "cytotoxicity at 70.5 h, %": -5.83}
{"COMPOUND": "COc1cccc(OCC2CCCN(C(=O)CCc3cc(O)no3)C2)c1 (configuration not stated)", "cytotoxicity at 70.5 h, %": -21.1}
{"COMPOUND": "CS(=O)(=O)NC[C@H]1OC[C@@H]2CN(Cc3cccnc3)CC[C@@H]21", "cytotoxicity at 70.5 h, %": -2.64}
{"COMPOUND": "CNCCN1C(=O)CC[C@H]2CN(c3cnc4ccccc4n3)CC[C@H]21", "cytotoxicity at 70.5 h, %": -2.89}
{"COMPOUND": "CC(C)c1cc(NC(=O)CNC2CCc3ncnn3C2)on1 (configuration not stated)", "cytotoxicity at 70.5 h, %": 11.4}
{"COMPOUND": "CC1CCC(NS(=O)(=O)CC(=O)NC(C2CC2)C2CC2)CC1 (configuration not stated)", "cytotoxicity at 70.5 h, %": 23.5}
{"COMPOUND": "COc1ccc(C)cc1-n1cnnc1C1CCOCC1", "cytotoxicity at 70.5 h, %": -2.32}
{"COMPOUND": "CCOc1cc(C(=O)N2CCCC(c3nc(C)c(C)s3)C2)ccn1 (configuration not stated)", "cytotoxicity at 70.5 h, %": 3.48}
{"COMPOUND": "CN1CCN(C[C@@H]2OC[C@H]3CN(Cc4ccncc4)CC[C@H]32)CC1", "cytotoxicity at 70.5 h, %": 0.409}
{"COMPOUND": "CC(C)(NS(C)(=O)=O)c1nc(-c2ccncc2)no1", "cytotoxicity at 70.5 h, %": 18.6}
{"COMPOUND": "O=C(CSC1CCCC1)N1CCN(C(=O)C2CC2c2ccccc2)CC1 (configuration not stated)", "cytotoxicity at 70.5 h, %": -3.24}
{"COMPOUND": "CCS(=O)(=O)N1CCN(CCOC)c2ncccc2C1", "cytotoxicity at 70.5 h, %": -4.33}
{"COMPOUND": "O=C(C1=CCCC1)N1CC[C@]2(C[C@H](OCc3cccnc3)CO2)C1", "cytotoxicity at 70.5 h, %": -12.5}
{"COMPOUND": "CCN1CC2(CCN(C(=O)N(C)C)CC2)COc2ccccc2S1(=O)=O", "cytotoxicity at 70.5 h, %": 4.83}
{"COMPOUND": "CC(C)c1cc(N2CCC3(CCN(C)C3)C2)ncn1 (configuration not stated)", "cytotoxicity at 70.5 h, %": 3.25}
{"COMPOUND": "CCCN1CCN(C(=O)Cc2cccnc2)[C@H]2CS(=O)(=O)C[C@H]21", "cytotoxicity at 70.5 h, %": 11.9}
{"COMPOUND": "Cc1cc(N2CCCC(O)(CN(C)C(=O)CCN)C2)c2cnccc2n1 (configuration not stated)", "cytotoxicity at 70.5 h, %": 26.9}

This collection of values is drawn from ChEMBL document CHEMBL3507680.
